Every entry's value here was drawn from patent US20200190062A1.

- Test system: A549
- experiment_description: Inhibition of cancer cell proliferation (MTT)
- Format: cell-based, human
- measurement_context: Homo sapiens, A549, 72 h
quantity_kind: GI50 (nM)

Some compounds with recorded GI50:
compound: CNc1nc(-c2nc(-c3ccnc(N)c3F)ccc2O)cc(C2CCN(C)CC2)n1
GI50 (nM): 70
--
compound: CN(C)c1cc(-c2nc(-c3ccnc(N)c3F)ccc2O)nc(N)n1
GI50 (nM): 20
--
compound: Nc1nccc(-c2nc(-c3ccnc(N)c3F)ccc2O)n1
GI50 (nM): 30
--
compound: CC(C)N1CCCC(c2cc(-c3nc(-c4ccnc(N)c4F)ccc3O)nc(N)n2)C1 (stereo not shown)
GI50 (nM): 40
--
compound: CC(C)c1cc(-c2nc(-c3ccnc(N)c3F)ccc2O)nc(N)n1
GI50 (nM): 180
--
compound: Cc1c(-c2nc(-c3ccnc(N)c3F)ccc2O)nc(N)nc1C1CCN(C(C)C)CC1
GI50 (nM): 150

[a] CCc1c(-c2nc(-c3ccnc(N)c3F)ccc2O)nc(N)nc1C1CCN(C(C)C)CC1
[b] Cc1c(-c2nc(-c3ccnc(N)c3F)ccc2O)nc(N)nc1C1CCCN(C)C1 (stereo not shown)
[c] CCCN1CCCC(c2nc(N)nc(-c3nc(-c4ccnc(N)c4F)ccc3O)c2C)C1 (stereo not shown)
[d] CCN1CCC(c2cc(-c3nc(-c4ccnc(N)c4F)ccc3O)nc(N)n2)CC1
Put the items in order so that reported GI50 rises from first to last. Field: ranking. Enter the labels in the order requested.
d, a, b, c
(d: 20 nM, a: 50 nM, b: 210 nM, c: 1440 nM)

----------
- Test system: U-87MG
- experiment_description: Inhibition of cancer cell proliferation (MTT)
- Assay type: cell-based, human
- measurement_context: Homo sapiens, U-87 MG, 72 h
quantity_kind: GI50 (nM)

molecule: CCCN1CCC(c2nc(N)nc(-c3nc(-c4ccnc(N)c4F)ccc3O)c2C)CC1
display_unit: nM
quantitative_readout: 90
//
molecule: Cc1cc(-c2nc(-c3ccnc(N)c3F)ccc2O)nc(N)n1
display_unit: nM
quantitative_readout: 10

[P] CCCc1cnc(N)nc1-c1nc(-c2ccnc(N)c2F)ccc1O
[Q] Nc1nccc(-c2cc(-c3ccnc(N)n3)c(O)cn2)n1
# return whichever of P and Q has the smaller GI50 Kindly state the label of the option you pick.
P

[A] Cc1c(-c2nc(-c3ccnc(N)c3F)ccc2O)nc(N)nc1C1CCCN(C)C1 (stereo not drawn)
[B] CN1CCCC(c2cc(-c3nc(-c4ccnc(N)c4F)ccc3O)nc(N)n2)C1 (stereo not drawn)
Determine, for A and B , which has the greater value of GI50. Please respond with the label that marks your chosen entry.
A

[A] Nc1cccc(-c2ccc(O)c(-c3ccnc(N)n3)n2)c1
[B] Nc1nc(-c2nc(-c3ccnc(N)c3F)ccc2O)cc(N2CCOCC2)n1
Hi there! Just curious which has the higher GI50 between A and B . // output: label of the selected item
A

----------
- experiment_description: Blood brain barrier permeation
- Type: in vivo, ICR mice
- measurement_context: male, ICR, mouse, brain, po, 30 mg/kg, oral once 30 mg/kg, 4 hrs, read-out: Concentration in the brain
quantity_kind: concentration at 4 h (ng/g)

[1] Nc1cc(-c2ccc(O)c(-c3ccnc(N)n3)n2)ccn1 [Example 10]
[2] Nc1nccc(-c2nc(-c3ccnc(N)c3F)ccc2O)n1 [Example 8]
[3] Nc1nccc(-c2ccc(O)c(-c3ccnc(N)n3)n2)n1 [Example 61]
// TODO: order the 3 compounds above by concentration at 4 h, descending Answer format: list of labels, ordered as asked.
3, 2, 1

----------
- measured_on: CDK1/cyclinB (Homo sapiens, UniProt P06493)
- Sequence (P06493 whole entry): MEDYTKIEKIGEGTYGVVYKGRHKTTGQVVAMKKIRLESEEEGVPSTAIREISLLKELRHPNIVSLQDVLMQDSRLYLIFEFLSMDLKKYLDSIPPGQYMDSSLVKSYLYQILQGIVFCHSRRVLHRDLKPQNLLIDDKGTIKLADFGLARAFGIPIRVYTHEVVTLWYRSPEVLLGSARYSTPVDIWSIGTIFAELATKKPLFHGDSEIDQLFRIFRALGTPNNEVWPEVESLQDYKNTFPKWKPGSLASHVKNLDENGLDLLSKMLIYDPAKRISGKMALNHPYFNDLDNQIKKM
- Sequence (P14635 whole entry partner): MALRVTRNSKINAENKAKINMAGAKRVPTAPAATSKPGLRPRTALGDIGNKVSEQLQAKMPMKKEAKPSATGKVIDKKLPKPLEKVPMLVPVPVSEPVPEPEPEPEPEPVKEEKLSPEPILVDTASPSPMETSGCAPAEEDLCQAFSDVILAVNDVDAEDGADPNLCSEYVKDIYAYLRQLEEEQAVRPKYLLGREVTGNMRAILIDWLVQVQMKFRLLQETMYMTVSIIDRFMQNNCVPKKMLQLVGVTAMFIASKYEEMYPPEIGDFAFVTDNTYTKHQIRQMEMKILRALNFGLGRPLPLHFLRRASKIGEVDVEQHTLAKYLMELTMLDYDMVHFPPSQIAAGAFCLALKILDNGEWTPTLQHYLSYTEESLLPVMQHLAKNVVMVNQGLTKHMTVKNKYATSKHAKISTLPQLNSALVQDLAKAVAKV
- experiment_description: Inhibition of CDK enzyme activity (ADP-Glo kinase assay)
- measurement_context: 10 uM ATP, histone H1 substrate
quantity_kind: IC50 (nM)

[P] Nc1nccc(-c2ccc(O)c(-c3ccnc(N)n3)n2)n1 [Example 61]
[Q] Nc1nccc(-c2nc(-c3ccc(O)c(F)c3)ccc2O)n1
[R] Nc1nccc(-c2nc(-c3ccncc3)ccc2O)n1
[S] Nc1nccc(-c2nc(-c3ccc(O)cc3F)ccc2O)n1
[T] CN(C)c1cc(-c2nc(-c3ccnc(N)c3F)ccc2O)nc(N)n1
Arrange the 5 molecules from largest to smallest IC50. A ranking is expressed here by listing the labels in the requested order.
S, Q, R, T, P

----------
- System: A549
- experiment_description: Inhibition of cancer cell proliferation (MTT)
- Type: cell-based, human
- measurement_context: Homo sapiens, A549, 72 h
quantity_kind: GI50 (nM)

Some compounds with known GI50 results, for comparison:
compound: CCCN1CCC(c2cc(-c3nc(-c4ccnc(N)c4F)ccc3O)nc(N)n2)CC1 [Example 36]
display_unit: nM
GI50: 20
--
compound: Nc1nccc(-c2ccc(O)c(-c3ccnc(N)n3)n2)n1 [Example 61]
display_unit: nM
GI50: 210
--
compound: CN1CCCC(c2cc(-c3nc(-c4ccnc(N)c4F)ccc3O)nc(N)n2)C1 (stereo not drawn) [Example 38]
display_unit: nM
GI50: 5
--
compound: CCCN1CCC(c2nc(N)nc(-c3nc(-c4ccnc(N)c4F)ccc3O)c2C)CC1 [Example 44]
display_unit: nM
GI50: 140
--
compound: CC(C)c1cnc(N)nc1-c1nc(-c2ccnc(N)c2F)ccc1O [Example 58]
display_unit: nM
GI50: 70
--
compound: Cc1cc(-c2nc(-c3ccnc(N)c3F)ccc2O)nc(N)n1 [Example 71]
display_unit: nM
GI50: 20
--
compound: Nc1nc(-c2nc(-c3ccnc(N)c3F)ccc2O)cc(C2CCNCC2)n1 [Example 33]
display_unit: nM
GI50: 190

[a] CCN1CCC(c2nc(N)nc(-c3nc(-c4ccnc(N)c4F)ccc3O)c2C)CC1 [Example 43]
[b] CCc1cnc(N)nc1-c1nc(-c2ccnc(N)c2F)ccc1O [Example 56]
Given a and given b , which shows the smaller recorded GI50? Pick one; state its label.
b
(b: 80 nM, a: 460 nM)

----------
- measured_on: CDK1/cyclinB (Homo sapiens, UniProt P06493)
- experiment_description: Inhibition of CDK enzyme activity (ADP-Glo kinase assay)
- measurement_context: 10 uM ATP, histone H1 substrate
quantity_kind: IC50 (nM)

molecule: Nc1nccc(-c2ccc(O)c(-c3ccnc(N)n3)n2)n1 [Example 1]
IC50 [nM]: 1.5

[P] Nc1nccc(-c2nc(-c3ccnc(N)c3F)ccc2O)n1 [Example 66]
[Q] CC(C)c1cnc(N)nc1-c1nc(-c2ccnc(N)c2F)ccc1O [Example 104]
[R] CN1CCC(c2cc(-c3nc(-c4ccnc(N)c4F)ccc3O)nc(N)n2)CC1 [Example 34]
[S] Nc1nccc(-c2nc(-c3cccc(N)c3F)ccc2O)n1 [Example 18]
List items by IC50 in falling order. Your task in answering is to list the labels in the requested order.
S, R, Q, P
(S: 26.8 nM, R: 2.1 nM, Q: 1.3 nM, P: 0.6 nM)

----------
- System: U-87MG
- experiment_description: Inhibition of cancer cell proliferation (MTT)
- Type: cell-based, human
- measurement_context: Homo sapiens, U-87 MG, 72 h
quantity_kind: GI50 (nM)

See these solved cases before continuing.
smiles_code: CCCN1CCC(c2cc(-c3nc(-c4ccnc(N)c4F)ccc3O)nc(N)n2)CC1
quantity_kind: GI50
quantitative_readout: 10
//
smiles_code: CCc1c(-c2nc(-c3ccnc(N)c3F)ccc2O)nc(N)nc1C1CCN(C(C)C)CC1
quantity_kind: GI50
quantitative_readout: 30
//
smiles_code: Nc1nccc(-c2nc(-c3ccc(O)c(F)c3)ccc2O)n1
quantity_kind: GI50
quantitative_readout: 440

[a] Nc1nccc(-c2nc(-c3ccc(O)cc3)ccc2O)n1
[b] CCN1CCC(c2nc(N)nc(-c3nc(-c4ccnc(N)c4F)ccc3O)c2C)CC1
[c] CN1CCN(c2cc(-c3nc(-c4ccnc(N)c4F)ccc3O)nc(N)n2)CC1
[d] Nc1nccc(-c2nc(-c3ccc(O)c(F)c3F)ccc2O)n1
[e] Nc1nccc(-c2nc(-c3ccc(O)cc3F)ccc2O)n1
Order the records by GI50, with each subsequent value no larger than the one before. Give the labels in the order requested.
e, d, a, b, c
(e: 1700 nM, d: 1180 nM, a: 630 nM, b: 280 nM, c: 30 nM)

----------
- Test system: T98G
- experiment_description: Inhibition of cancer cell proliferation (MTT)
- Type: cell-based, human
- measurement_context: Homo sapiens, T98G, 72 h
quantity_kind: GI50 (nM)

compound: CCCN1CCCC(c2nc(N)nc(-c3nc(-c4ccnc(N)c4F)ccc3O)c2C)C1 (centres unmarked) [Example 47]
measured_on: T98G
quantitative_readout: 1410
--
compound: Nc1nccc(-c2nc(-c3ccncc3)ccc2O)n1 [Example 12]
measured_on: T98G
quantitative_readout: 1830
--
compound: CCCN1CCCC(c2cc(-c3nc(-c4ccnc(N)c4F)ccc3O)nc(N)n2)C1 (centres unmarked) [Example 40]
measured_on: T98G
quantitative_readout: 50
--
compound: CCCN1CCC(c2nc(N)nc(-c3nc(-c4ccnc(N)c4F)ccc3O)c2C)CC1 [Example 44]
measured_on: T98G
quantitative_readout: 130
--
compound: CCN1CCC(c2nc(N)nc(-c3nc(-c4ccnc(N)c4F)ccc3O)c2C)CC1 [Example 43]
measured_on: T98G
quantitative_readout: 460

[1] Cc1c(-c2nc(-c3ccnc(N)c3F)ccc2O)nc(N)nc1C1CCCN(C)C1 (centres unmarked) [Example 46]
[2] Cc1c(-c2nc(-c3ccnc(N)c3F)ccc2O)nc(N)nc1C1CCCN(C(C)C)C1 (centres unmarked) [Example 99]
For this pair, 1 and 2 , which shows a numerically higher GI50? Kindly give the label for the entry you pick.
2
(2: 3790 nM, 1: 250 nM)
